# credit: patent US20250368734A1

Known EC50 of a selection of binders
- target system: T1, mouse GPRC5D (mouse, UniProt Q9JIL6 1-344)
- T1 construct: whole, on cells; HEK293T-mGPRC5D cells; also called mGPRC5D; murine GPRC5D
- T1 sequence (looked up): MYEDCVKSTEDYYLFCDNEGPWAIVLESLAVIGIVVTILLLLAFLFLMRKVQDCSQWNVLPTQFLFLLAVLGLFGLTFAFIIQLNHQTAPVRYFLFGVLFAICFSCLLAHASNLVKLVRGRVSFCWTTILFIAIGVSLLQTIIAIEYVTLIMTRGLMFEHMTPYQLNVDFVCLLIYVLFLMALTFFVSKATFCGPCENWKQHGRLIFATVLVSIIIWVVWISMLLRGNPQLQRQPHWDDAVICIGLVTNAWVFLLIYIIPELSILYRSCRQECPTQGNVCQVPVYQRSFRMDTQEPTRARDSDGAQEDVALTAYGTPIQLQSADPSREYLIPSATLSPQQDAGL
- test: FACS, HEK293T-mGPRC5D cells
Form entry: value (nM) — number only.

Previously resolved entries follow.
| binder | numeric value |
| --- | --- |
| ch110B4H5 (antibody, V domains shown) VH: EVQLQQSGPELVKPGASVKMSCKASGYTFTFYIMHWVKQKPGQGPEWIGYINPYNDGTKYNAKFKGKATLSSDRSSSTAYMELSSLTSEDSAVYYCARGGVRRYFDVWGAGTPVTVSS VL: DIQMTQSPSSLSASLGERVSLTCRSSQDIGSNLNWLQQEPDGTIKRLIYATFSLDSGVPKRFSGSRSGSHYSLTISSLESEDFVVYYCLQYGSFPYTFGGGTKLEIK | 14.2 |
| ch28H9C12 (antibody, V domains shown) VH: EVQLVESGGGLVKPGGSLKLSCAASGFTFSDYGMHWVRQAPEKGLEWVAYISSGSSTIYYADTVKGRFTISRDNAKNTLFLQMTSLRSEDTAIYYCVRRPWYFDVWGTGTTVTVSS VL: DVLMTQTPLSLPVSLGDQASISCRSSQSIVHSNGNTYLQWYLQKPGQSPKLLIYKVSNRFSGVPDRFSGSGSGTDFTLKISRLEAEDLGVYYCFQGSHVPFTFGSGTKLEIK | 110 |
| ch87A3G8 (antibody, V domains shown) VH: QVQLKESGPGLVAPSQSLSITCTVSGFSLSSYSVYWVRQPPGKGLEWLGVIWAGGSTNYNSALMSRLSINKDKSKSQVFLKMNSLQTDDSAIYYCAMRWLPRGLDFWGQGTSVTVSS VL: DIVMTQSHKFMSTSVGDRVSITCKASQDVGTAVAWYQQKPGQSPKLLIYWASTRHTGVPDRFTGSGSGTDFTLTISNVQSEDLADYFCQQYSTYYTFGGGTKLEIK | 15 |
| ch20C4E1 (antibody, V domains shown) VH: EVRLVESGGALVRPGGSLKLSCAASGFTFSDYGMHWVRQAPEKGLEWIAFISSVSFTIYYADTVKGRFTISRDNAKNTLFLQMTSLRSEDTALYYCTRLGPHWYFDVWGTGTTVTVSS VL: DVVLTQTPLSLPVSLGDQASISCRSSQSLVYSNGNTYLHWFLQKPGQSPQLLIYKVSNRFSGVPDRFSGSGSGTDFTLKISRVEAEDLGVYFCSQSTPVPTFGGGTKLEIK | 3940 |
| ATG596 (antibody, V domains shown, Human IgG1; also called benchmark antibody ATG596; positive human IgG1 control antibody) VH: QVQLVQSGAEVKKPGASVKVSCKASGYSFTGYTMNWVRQAPGQGLEWMGLINPYNSDTNYAQKLQGRVTMTTDTSTSTAYMELRSLRSDDTAVYYCARVALRVALDYWGQGTLVTVSS VL: DIQMTQSPSSLSASVGDRVTITCKASQNVATHVGWYQQKPGKAPKRLIYSASYRYSGVPSRFSGSGSGTEFTLTISNLQPEDFATYYCQQYNRYPYTFGQGTKLEIK | 25.5 |
| ch12G12C2 (antibody, V domains shown) VH: QIQLVQSGPELKMPGETVKISCKASGYTFTTYGLSWVKQAPGKGLKWMGWINTFSGVPIYADDFKGRFAFSLETSASTAYLQINNLKNEDTATYFCARWGIRQRGDYWGQGATLTVSS VL: QIVLTQSPAIMSASPGEKVTMTCSASSSVSYLHWYQQKSGTSPKRWIYDTSKLASGVPVRFSGSGSETSYSLTISSMEAEDAATYYCQQWTSNPPTFGGGTKLEIK | 995 |

Switching to the query record.
Query: EC50; subject: ch101B3G3 (antibody, V domains shown) VH: EVQLQQSGPELVKPGASMKISCKASGYSFTGYTMNWVKQSHGKNLEWIGLINPYNGGTRYNQKFKDKATLTVDKSSSTAYMELLSLTSEDSAVYYCARWLLRYAMDYWGQGTSVTVSS VL: DIVMTQSQKFMSTSVGDRVSITCKASQNVGNAVAWYQQKPGHSPKLLISSASNRKNGVPDRFTGSGSGTDFTLTVSNMQSEDLADYFCQQYSDSSWTFGGGTKLEIK
38.6
